Quick record: IC50, UniProt:P09382.
Sequence (P09382 whole entry): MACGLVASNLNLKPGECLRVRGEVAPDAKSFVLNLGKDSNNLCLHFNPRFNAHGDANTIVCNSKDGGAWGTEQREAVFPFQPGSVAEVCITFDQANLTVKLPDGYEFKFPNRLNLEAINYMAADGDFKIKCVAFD
RESULT_TYPE: IC50

MOLECULE	RESULT
CN(Cc1ccccc1)C(=O)[C@H](S[C@@H]1O[C@H](CO)[C@H](O)[C@H](n2cc(-c3cc(F)c(F)c(F)c3)nn2)[C@H]1O)C1(O)CCOCC1 [Example 2.41.207R.]	51500 nM
CN(CCC1CCOCC1)C(=O)[C@@H](S[C@@H]1O[C@H](CO)[C@H](O)[C@H](n2cc(-c3cc(F)c(F)c(F)c3)nn2)[C@H]1O)C1(O)CCOCC1 [Example 2.41.216S.]	110 nM
Cc1cc(-c2cn([C@H]3[C@@H](O)[C@@H](CO)O[C@@H](S[C@@H](C(=O)N(C)C4CC4)C4(O)CCC(F)(F)CC4)[C@@H]3O)nn2)cnc1F [Example 21.44.221R.]	220 nM
CN(CC(C)(C)F)C(=O)[C@@H](S[C@@H]1O[C@H](CO)[C@H](O)[C@H](n2cc(-c3cc(F)c(F)c(F)c3)nn2)[C@H]1O)C1(O)CCCCC1 [Example 2.39.222S.]	90 nM
CC(C)(O)C(S[C@@H]1O[C@H](CO)[C@H](O)[C@H](n2cc(-c3cc(F)c(F)c(F)c3)nn2)[C@H]1O)C(=O)N1CCC1 (some centres unmarked) [Example 2.31.206.]	1400 nM
CN(CC(C)(C)C)C(=O)C(S[C@@H]1O[C@H](CO)[C@H](O)[C@H](n2cc(-c3cc(F)c(F)c(F)c3)nn2)[C@H]1O)C1(O)CCC1 (some centres unmarked) [Example 2.34.228.]	160 nM
CN(CC(F)(F)F)C(=O)C(S[C@@H]1O[C@H](CO)[C@H](O)[C@H](n2cc(-c3cc(F)c(F)c(F)c3)nn2)[C@H]1O)C1(O)CCC1 (some centres unmarked) [Example 2.34.219.]	640 nM
CN(CCN1CCOCC1)C(=O)C(S[C@@H]1O[C@H](CO)[C@H](O)[C@H](n2cc(-c3cc(F)c(F)c(F)c3)nn2)[C@H]1O)C(C)(C)O (some centres unmarked) [Example 2.31.230.]	1250 nM
CCN(C(=O)C(S[C@@H]1O[C@H](CO)[C@H](O)[C@H](n2cc(-c3cc(F)c(F)c(F)c3)nn2)[C@H]1OC)C1(O)CCC(F)(F)CC1)C1CCOCC1 (some centres unmarked) [Example 2.44.257.I.]	180 nM
CO[C@@H]1[C@@H](n2cc(-c3cc(F)c(F)c(F)c3)nn2)[C@@H](O)[C@@H](CO)O[C@H]1SC(C(=O)N(C)CC1CC1)C1(O)CCC(F)(F)CC1 (some centres unmarked) [Example 2.44.218.I.]	80 nM
CN(CCC1CCOCC1)C(=O)C(S[C@@H]1O[C@H](CO)[C@H](O)[C@H](n2cc(-c3cc(F)c(F)c(F)c3)nn2)[C@H]1O)C1(O)CCOCC1 (some centres unmarked) [Example 2.41.216.]	380 nM

The measurements presented in this section are drawn from patent US12410208B2.
